tested on: OVCAR-3 ovarian; test: NCI-60 one-dose screen, 48 h; conditions: 10 µM unless noted
About 83,000 compounds went through this panel and 20% of them were active in at least one assay; those are over-represented in the sample as a whole. The source made the active and inactive calls. Rule for the calls: active = growth percent below 10; inactive = the rest.
Pick one: active, inactive

Asked: I would be grateful if you could indicate the recorded call for COc1cc(/C=C/C(=O)c2cc(OC)c(OC)c(OC)c2)ccc1OCc1ccc(F)cc1 .
Given back: inactive

---

tested on: UACC-257 melanoma; experiment: NCI-60 one-dose screen, 48 h (100 = growth as untreated, 0 = no growth, -100 = all killed); details: 10 µM unless noted
This is part of a sample that, as a whole, favours compounds with a hit. Of some 83,000 tested, about 20% had one in any assay.
EXPERIMENTAL_ENDPOINT: growth (%)
I only need the number, in %, no unit after it.

Worked examples, 5 compounds total:
[
  {
    "COMPOUND": "O=C(CSc1nc2sc3c(c2c(=O)n1-c1ccc(Cl)cc1)CCCC3)NNC(=O)Nc1cccc(C(F)(F)F)c1",
    "ASSAY_TARGET": "UACC-257 melanoma",
    "NUMBER": 35.3
  },
  {
    "COMPOUND": "COC(=O)C(C)NS(=O)(=O)/N=C1\\NC(=O)NC1=C(Cl)Cl (centres undefined)",
    "ASSAY_TARGET": "UACC-257 melanoma",
    "NUMBER": 99.7
  },
  {
    "COMPOUND": "CC1=C(C)C(=O)C(Nc2cccc(C(F)(F)F)c2)=C(Cl)C1=O",
    "ASSAY_TARGET": "UACC-257 melanoma",
    "NUMBER": 78.5
  },
  {
    "COMPOUND": "COc1cc(-c2nc3ccc(-c4nnc(SCC(=O)Nc5ccc(C(=O)/C=C/c6ccc(Cl)cc6)cc5)o4)cc3[nH]2)cc(OC)c1OC",
    "ASSAY_TARGET": "UACC-257 melanoma",
    "NUMBER": 112
  },
  {
    "COMPOUND": "O=C1Nc2cc(Cl)ccc2/C1=C\\c1ccc(OCc2ccc([N+](=O)[O-])cc2)cc1",
    "ASSAY_TARGET": "UACC-257 melanoma",
    "NUMBER": 89.5
  }
]

Asked: If you can, please state the reported growth value of C/C(=N\NC(N)=O)c1c(O)sc(=O)[nH]c1=O .
Given back: 96.5

Asked: Next entry: COc1cc(/C=C/C(=O)c2ccccc2)ccc1Oc1nc(NCCO)nc(N2CCOCC2)n1
Given back: 95.4

Asked: Consider next the compound Nc1nc(N)c2c(n1)NC(c1ccc(F)cc1)CC(c1ccc(Nc3nc(NCCO)nc(Nc4ccc(Cl)cc4)n3)cc1)=N2 (centres undefined) in the same way.
Given back: 106

Asked: Could you do the same for COc1cc2nc(-c3ccc(C)cc3)cc(OCCCNCC3CCCO3)c2cc1OC (centres undefined) , please?
Given back: 17.8
